- tgt: T1, biotin-labeled cynomolgus monkey CD137 fused to human IgG1 Fc fragment (cynomolgus monkey, UniProt Q07011 24-186 (human entry), limits assumed, biotin-labeled)
- T1 construct: also called cyno CD137-Fc; not shown: human IgG1 Fc fragment
- T1 chain: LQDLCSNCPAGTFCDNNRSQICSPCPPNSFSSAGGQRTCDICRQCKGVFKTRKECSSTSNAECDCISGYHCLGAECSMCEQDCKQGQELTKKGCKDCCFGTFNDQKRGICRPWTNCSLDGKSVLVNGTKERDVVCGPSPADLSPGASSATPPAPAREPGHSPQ
- protocol.text: bead ELISA; RLU on cyno CD137-Fc divided by RLU on human Fc
result.type: S/N ratio cyno CD137-Fc/Fc
Give bare numbers.

Consider the reported S/N ratio cyno CD137-Fc/Fc for these binders:
DADU01_3#001 (antibody, human IgG1, V domains shown, IgG: VH joined to human IgG1 CH1-Fc; also called dBBDu_126; dBBDu126) VH: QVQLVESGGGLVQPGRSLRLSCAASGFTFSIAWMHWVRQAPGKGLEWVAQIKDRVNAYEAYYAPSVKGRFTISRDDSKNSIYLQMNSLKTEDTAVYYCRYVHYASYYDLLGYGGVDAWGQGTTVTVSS VL: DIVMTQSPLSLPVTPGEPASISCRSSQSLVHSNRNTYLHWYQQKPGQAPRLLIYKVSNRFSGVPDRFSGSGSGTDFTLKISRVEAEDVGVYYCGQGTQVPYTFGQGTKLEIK; 0.687
DADU01_3#002 (antibody, human IgG1, V domains shown, IgG: VH joined to human IgG1 CH1-Fc; also called dBBDu124) VH: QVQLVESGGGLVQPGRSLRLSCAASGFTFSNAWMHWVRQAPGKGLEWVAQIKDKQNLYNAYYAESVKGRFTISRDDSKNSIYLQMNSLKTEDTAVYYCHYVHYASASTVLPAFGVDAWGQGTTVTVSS VL: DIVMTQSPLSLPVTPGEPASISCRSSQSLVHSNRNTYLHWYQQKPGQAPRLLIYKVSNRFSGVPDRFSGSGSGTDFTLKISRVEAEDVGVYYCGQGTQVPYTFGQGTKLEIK; 5.6

Query: Fill blank: measured S/N ratio cyno CD137-Fc/Fc of the binder DXDU01_3#019 (antibody, human IgG1, V domains shown, IgG: VH joined to human IgG1 CH1-Fc; also called dBBDu125) VH: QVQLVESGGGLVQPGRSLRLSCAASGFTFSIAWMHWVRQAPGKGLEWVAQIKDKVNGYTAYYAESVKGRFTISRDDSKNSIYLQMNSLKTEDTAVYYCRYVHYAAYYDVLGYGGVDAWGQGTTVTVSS VL: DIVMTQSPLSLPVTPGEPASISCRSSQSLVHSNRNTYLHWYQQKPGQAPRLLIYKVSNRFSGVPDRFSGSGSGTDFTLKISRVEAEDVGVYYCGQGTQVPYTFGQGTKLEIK is ____.
Response: 1.56
